Assay: chemical genetic growth profiling, strain panel (AID 1159580);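 further: tested at 20 µM; growth read once vehicle control cultures reached saturation at 30 °C; 1 = growth at the plate median or of vehicle wells; lower values mean less growth of the strain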
Conditions: S. cerevisiae deletion strains, growth OD, locus YDL035C, strain GPR1, hits give low values
About 2,000 (36%) of roughly 5,500 compounds were called active. Roughly 18% stayed inconclusive and do not appear here. The list shows a part of the results.
Quantity Kind: normalized growth

• CC1(C)O[C@@H]2CC3C4C[C@H](F)C5=CC(=O)C=C[C@]5(C)[C@@]4(F)[C@@H](O)C[C@]3(C)[C@]2(C(=O)CO)O1 (some centres undefined) = 0.982 (inactive)
• COc1cc([C@@H]2c3cc4c(cc3[C@H](O)[C@H]3COC(=O)[C@@H]23)OCO4)cc(OC)c1OC = 0.991 (inactive)
• CC(C)[C@]12O[C@H]1[C@@H]1O[C@@]13[C@@]1(C)CCC4=C(COC4=O)[C@@H]1C[C@@H]1O[C@@]13C2=O = 1.01 (inactive)
• CC(C)c1ccc2c(c1O)CC[C@H]1C3=C(CC[C@]21C)C(=O)OC3 = 0.943 (inactive)

Source listed as PubChem BioAssay AID1159580.
